B1: HDV Ribozyme (parent)
chain: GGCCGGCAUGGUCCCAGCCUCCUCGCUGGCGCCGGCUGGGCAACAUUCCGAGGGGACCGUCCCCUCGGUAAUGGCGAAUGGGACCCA

variants of: B1; assay: self-cleavage, relative activity (ratio to wild type); higher = more cleavage; co-transcriptional
PROPERTY_MEASURED: self-cleavage
Please state the value as a number alone, without comment.

Entry G6C G76U : reported self-cleavage = ?
0.604

Entry U9C U37G : reported self-cleavage = ?
0

Entry C26G A83U : reported self-cleavage = ?
0.917
